Test System: P2K2 extracellular lectin domain (LecRK-I.5), GST-tagged (Arabidopsis thaliana, UniProt Q9M1G4, S246A)
Construct: extracellular lectin domain (ectodomain), GST fusion, purified from E. coli BL21-AI
Sequence (Q9M1G4 23-286 S246A limits assumed): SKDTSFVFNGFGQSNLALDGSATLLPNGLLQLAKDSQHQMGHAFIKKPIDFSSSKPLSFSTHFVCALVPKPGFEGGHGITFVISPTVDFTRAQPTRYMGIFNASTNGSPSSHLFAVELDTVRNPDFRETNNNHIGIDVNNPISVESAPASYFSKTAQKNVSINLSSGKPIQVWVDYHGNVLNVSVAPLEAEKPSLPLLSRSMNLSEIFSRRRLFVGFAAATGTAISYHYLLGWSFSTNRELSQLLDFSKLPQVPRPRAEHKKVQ
Test Protocol: radioligand binding, gel filtration separation of bound and free ATP, saturation fit
pKd: −log10 of the molar value.

Compound Structure String: Nc1ncnc2c1ncn2[C@@H]1O[C@H](COP(=O)(O)OP(=O)(O)OP(=O)(O)O)[C@@H](O)[C@H]1O
pKd: 6.96

* * *

Test System: P2K2 extracellular lectin domain (LecRK-I.5), GST-tagged (Arabidopsis thaliana, UniProt Q9M1G4, T245A)
Construct: extracellular lectin domain (ectodomain), GST fusion, purified from E. coli BL21-AI
Test Protocol: radioligand binding, gel filtration separation of bound and free ATP, saturation fit

Compound Structure String: Nc1ncnc2c1ncn2[C@@H]1O[C@H](COP(=O)(O)OP(=O)(O)OP(=O)(O)O)[C@@H](O)[C@H]1O
Kd [nM]: 41.7

* * *

Test System: P2K2 extracellular lectin domain (LecRK-I.5), GST-tagged (Arabidopsis thaliana)
Construct: extracellular lectin domain (ectodomain), GST fusion, purified from E. coli BL21-AI
Test Protocol: radioligand binding, gel filtration separation of bound and free ATP, saturation fit
Measurement Label: Kd (nM)

Compound Structure String: Nc1ncnc2c1ncn2[C@@H]1O[C@H](COP(=O)(O)OP(=O)(O)OP(=O)(O)O)[C@@H](O)[C@H]1O
Test System: P2K2 extracellular lectin domain (LecRK-I.5), GST-tagged (Arabidopsis thaliana)
Value Observed: 41.6

The reported numbers originate from paper PMC9897758.
